Can you tell me Selectivity ratio for the items I'm about to list?
# procedure.text: Selectivity ratio of Kd for PI3Kalpha to Kd for TRKA
Give bare numbers.

Batch request: Selectivity ratio for each of the following compounds.
1. N#Cc1cccc(-c2cnc3[nH]cc(-c4cccc(N)c4)c3c2)c1
2. COc1ccc(-c2c[nH]c3ncc(-c4cncc(NS(=O)(=O)c5ccccc5)c4)cc23)cc1OC
3. Nc1cccc(-c2cnc3[nH]cc(-c4cccnc4)c3c2)c1
4. COc1ccc(-c2c[nH]c3ncc(-c4cncc(N)c4)cc23)cc1OC
5. COc1ccc(-c2c[nH]c3ncc(-c4cccc(NS(=O)(=O)c5ccccc5)c4)cc23)cc1OC

stdout:
109
0.33
60
17
25

* * *

# Test system: MCF7
# procedure.text: cells
# conditions.used: Homo sapiens, MCF7, 48 h
# Description: Cytotoxicity against human MCF7 cells after 48 hrs by MTT assay
endpoint.label: pIC50
One number for each entry, as −log10 of the molar value.

Reference set (10 entries):
Nc1cc(NS(=O)(=O)c2cccc(C(F)(F)F)c2)cc(-c2cnc3[nH]cc(-c4ccncc4)c3c2)c1
5.38
Nc1cc(-c2cnc3[nH]cc(-c4ccncc4)c3c2)ccc1C(=O)N1CCOCC1
5.07
CN(C)c1cccc(-c2cnc3[nH]cc(-c4ccncc4)c3c2)c1
4.92
Nc1cncc(-c2cnc3[nH]cc(-c4ccncc4)c3c2)c1
5.29
Nc1ccc(-c2cnc3[nH]cc(-c4ccncc4)c3c2)cc1
5.11
Nc1cccc(-c2cnc3[nH]cc(-c4ccncc4)c3c2)c1
5.64
COc1ccc(N)cc1-c1cnc2[nH]cc(-c3ccncc3)c2c1
5.27
Nc1cc(NS(=O)(=O)c2ccccc2)cc(-c2cnc3[nH]cc(-c4ccncc4)c3c2)c1
5.06
CN(C)CCOc1ccc(-c2cnc3[nH]cc(-c4ccncc4)c3c2)cc1N
5.51
Cc1ccc(S(=O)(=O)Nc2cc(N)cc(-c3cnc4[nH]cc(-c5ccncc5)c4c3)c2)cc1
4.98

Batch request: pIC50 for each of the following compounds.
1. COc1cccc(-c2cnc3[nH]cc(-c4ccncc4)c3c2)c1
2. Cc1ccc(-c2cnc3[nH]cc(-c4ccncc4)c3c2)cc1N
3. COc1ccc(-c2cnc3[nH]cc(-c4ccncc4)c3c2)cc1N

stdout:
[4.93, 5.55, 5.06]

Batch request: pIC50 for each of the following compounds.
1. CC(=O)Nc1cccc(-c2cnc3[nH]cc(-c4ccncc4)c3c2)c1
2. CNc1cccc(-c2cnc3[nH]cc(-c4ccncc4)c3c2)c1
3. Nc1cc(OCCN2CCOCC2)cc(-c2cnc3[nH]cc(-c4ccncc4)c3c2)c1
4. CN(C)CCOc1cc(N)cc(-c2cnc3[nH]cc(-c4ccncc4)c3c2)c1
5. Nc1cc(NS(=O)(=O)c2ccc(F)cc2F)cc(-c2cnc3[nH]cc(-c4ccncc4)c3c2)c1
6. Nc1cc(-c2cnc3[nH]cc(-c4ccncc4)c3c2)ccc1Cl
7. COc1cc(N)cc(-c2cnc3[nH]cc(-c4ccncc4)c3c2)c1

stdout:
1. 5.04
2. 5.35
3. 4.95
4. 4.95
5. 5.18
6. 4.92
7. 5.07

* * *

Can you tell me Activity for the items I'm about to list?
# experimental.system: UniProt P04629
# Sequence (P04629 33-796 limits assumed): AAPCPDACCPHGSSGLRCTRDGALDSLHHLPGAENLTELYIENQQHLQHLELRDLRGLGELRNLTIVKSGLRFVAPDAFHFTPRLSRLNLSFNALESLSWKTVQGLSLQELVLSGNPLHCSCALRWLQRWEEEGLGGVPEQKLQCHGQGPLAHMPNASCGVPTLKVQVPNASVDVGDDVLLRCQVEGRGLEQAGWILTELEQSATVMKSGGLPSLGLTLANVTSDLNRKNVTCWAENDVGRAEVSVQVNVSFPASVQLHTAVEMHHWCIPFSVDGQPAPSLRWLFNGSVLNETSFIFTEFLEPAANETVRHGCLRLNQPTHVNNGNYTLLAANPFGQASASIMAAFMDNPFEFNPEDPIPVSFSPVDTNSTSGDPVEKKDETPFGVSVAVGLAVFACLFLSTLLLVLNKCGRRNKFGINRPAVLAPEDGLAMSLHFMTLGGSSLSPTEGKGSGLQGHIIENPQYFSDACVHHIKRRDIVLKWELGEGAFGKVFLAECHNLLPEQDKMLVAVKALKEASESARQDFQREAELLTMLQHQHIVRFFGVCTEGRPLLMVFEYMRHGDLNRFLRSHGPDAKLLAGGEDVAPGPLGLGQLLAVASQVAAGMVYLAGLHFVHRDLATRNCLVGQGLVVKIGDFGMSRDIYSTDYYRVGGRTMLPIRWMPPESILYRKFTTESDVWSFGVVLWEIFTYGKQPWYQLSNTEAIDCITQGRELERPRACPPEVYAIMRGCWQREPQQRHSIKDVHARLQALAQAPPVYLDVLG
# procedure.text: Binding affinity to TRKA at 10 uM by high throughput binding assay relative to control
One number for each entry, in %.

Batch request: Activity for each of the following molecules.
1. COc1ccc(-c2c[nH]c3ncc(-c4cccc(NS(=O)(=O)c5ccccc5)c4)cc23)cc1OC
2. Nc1cccc(-c2cnc3[nH]cc(-c4ccncc4)c3c2)c1
3. CS(=O)(=O)Nc1cccc(-c2c[nH]c3ncc(-c4cncc(NS(=O)(=O)c5ccccc5)c4)cc23)c1

stdout:
0.2
0
9.6

Batch request: Activity for each of the following molecules.
1. Nc1cccc(-c2cnc3[nH]cc(-c4cccnc4)c3c2)c1
2. COc1ccc(-c2c[nH]c3ncc(-c4cccc(C#N)c4)cc23)cc1OC

stdout:
1. 0.2
2. 26
